- SYSTEM: Glutamate receptor ionotropic, kainate
- RUN DESCRIPTION: Binding affinity towards Ionotropic glutamate receptor kainate
This section presents compounds with their documented Ki values.

compound=N[C@H](C(=O)O)[C@@H]1[C@H](C(=O)O)[C@@H]1c1ccccc1 result="155 µM"

Param item: "N[C@H](C(=O)O)[C@H]1[C@@H](C(=O)O)[C@@H]1c1ccccc1" ; param system: Glutamate receptor ionotropic, kainate; output Ki: 144 µM

Given the compound "N[C@H](C(=O)O)[C@@H]1[C@@H](C(=O)O)[C@@H]1c1ccccc1" and test system Glutamate receptor ionotropic, kainate, the measured Ki is > 190 µM

# value of Ki, Glutamate receptor ionotropic, kainate, item "N[C@H](C(=O)O)[C@H]1[C@H](C(=O)O)[C@@H]1c1ccccc1" = > 190 µM

Form field Ki for item N[C@@H](C(=O)O)[C@@H]1[C@H](C(=O)O)[C@H]1c1ccccc1 (stereo in doubt; 44) on Glutamate receptor ionotropic, kainate: > 190 µM

Item "N[C@H](C(=O)O)[C@H]1[C@H](C(=O)O)[C@H]1c1ccccc1" ; assay system Glutamate receptor ionotropic, kainate; Ki reported as 25 µM

The measured Ki that N[C@@H](C(=O)O)[C@@H]1[C@H](C(=O)O)[C@H]1c1ccccc1 (stereo in doubt; 47) showed for Glutamate receptor ionotropic, kainate is 221 µM
